target.or.system: Corticotropin-releasing factor receptor 1 (Homo sapiens)
assay.protocol: biochemical
Assay type: cell-based, CHO
Description: Binding affinity towards human Corticotropin releasing factor receptor 1 by the displacement of [125I]CRF from CHO cells
result.type: Ki (nM)

smiles.code	target.or.system	measurement.unit	Ki
CCCN(c1ncc(C)c(-c2ccc(Br)cc2)n1)C(C1CC1)C1CC1	Corticotropin-releasing factor receptor 1 (Homo sapiens)	nM	49

a: CCCN(c1nccc(-c2c(OC)cc(OC)cc2OC)n1)[C@@H](c1ccccc1)C1CC1
b: CCCN(c1nccc(-c2c(Cl)cc(OC)cc2OC)n1)C(C1CC1)C1CC1
Between a and b , whose recorded Ki is greater? // return label of chosen record a
(a: 240 nM, b: 11 nM)

* * *

target.or.system: Corticotropin-releasing factor receptor 1 (Homo sapiens)
Sequence (P34998 whole entry): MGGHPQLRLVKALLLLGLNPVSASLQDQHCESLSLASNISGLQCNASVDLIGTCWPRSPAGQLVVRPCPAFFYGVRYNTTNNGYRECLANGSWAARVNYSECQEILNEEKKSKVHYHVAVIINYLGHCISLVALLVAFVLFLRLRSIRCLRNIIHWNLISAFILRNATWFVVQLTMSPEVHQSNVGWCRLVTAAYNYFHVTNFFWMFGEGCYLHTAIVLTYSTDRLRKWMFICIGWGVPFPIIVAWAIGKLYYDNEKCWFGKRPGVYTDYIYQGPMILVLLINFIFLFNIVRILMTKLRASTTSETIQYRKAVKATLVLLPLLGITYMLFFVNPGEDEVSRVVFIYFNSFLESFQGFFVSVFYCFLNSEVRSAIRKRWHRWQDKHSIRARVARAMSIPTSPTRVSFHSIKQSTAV
assay.protocol: biochemical
Type: cell-based, CHO
pKi: −log10 of the molar value.
result.type: pKi

smiles.code	endpoint.result
CCCN(c1nccc(-c2c(OC)cc(OC)cc2OC)n1)C(C1CC1)C1CC1	7.82
CCCN(c1ncc(C)c(-c2ccc(Br)cc2C)n1)C(C1CC1)C1CC1	7.20

1: CCCN(c1nccc(-c2c(F)cc(OC)cc2OC)n1)C(C1CC1)C1CC1
2: CCCN(c1ncc(CC)c(-c2ccc(OC)cc2OC)n1)C(C1CC1)C1CC1
3: CCCN(c1ncc(C)c(-c2ccc(OC)cc2OC)n1)C(C1CC1)C1CC1
Order the 3 molecules from highest to lowest pKi. Your reply should list the labels following the order given in the request. 3, 1, 2
(3: 7.72, 1: 7.20, 2: 6.07)

* * *

target.or.system: Corticotropin-releasing factor receptor 1 (Homo sapiens, UniProt P34998)
assay.protocol: biochemical
Format: cell-based, CHO
result.type: Ki (nM)

I: CCCN(c1ncc(C)c(-c2c(OC)cc(OC)cc2OC)n1)C(C1CC1)C1CC1
II: C=CCN(c1nccc(-c2c(OC)cc(OC)cc2OC)n1)C(C1CC1)C1CC1
III: CCCN(c1nccc(-c2ccc(OC)cc2OC)n1)C(C1CC1)C1CC1
IV: CCCN(c1nccc(-c2c(OC)cc(OC)cc2OC)n1)C1(c2ccoc2)CC1
V: CCCN(c1nccc(-c2c(OC)cc(OC)cc2OC)n1)C1(c2cccs2)CC1
Order these compounds (above) by their Ki, from the smallest value upward. Your reply should list the labels following the order given in the request. I, II, V, III, IV

Value source: ChEMBL document CHEMBL1147540
